measured.target: T1, mTfR-1 V382A on Expi293 cells (mouse, UniProt Q62351 1-763)
T1 construct: whole, on cells
T1 sequence (Q62351 whole entry V382A): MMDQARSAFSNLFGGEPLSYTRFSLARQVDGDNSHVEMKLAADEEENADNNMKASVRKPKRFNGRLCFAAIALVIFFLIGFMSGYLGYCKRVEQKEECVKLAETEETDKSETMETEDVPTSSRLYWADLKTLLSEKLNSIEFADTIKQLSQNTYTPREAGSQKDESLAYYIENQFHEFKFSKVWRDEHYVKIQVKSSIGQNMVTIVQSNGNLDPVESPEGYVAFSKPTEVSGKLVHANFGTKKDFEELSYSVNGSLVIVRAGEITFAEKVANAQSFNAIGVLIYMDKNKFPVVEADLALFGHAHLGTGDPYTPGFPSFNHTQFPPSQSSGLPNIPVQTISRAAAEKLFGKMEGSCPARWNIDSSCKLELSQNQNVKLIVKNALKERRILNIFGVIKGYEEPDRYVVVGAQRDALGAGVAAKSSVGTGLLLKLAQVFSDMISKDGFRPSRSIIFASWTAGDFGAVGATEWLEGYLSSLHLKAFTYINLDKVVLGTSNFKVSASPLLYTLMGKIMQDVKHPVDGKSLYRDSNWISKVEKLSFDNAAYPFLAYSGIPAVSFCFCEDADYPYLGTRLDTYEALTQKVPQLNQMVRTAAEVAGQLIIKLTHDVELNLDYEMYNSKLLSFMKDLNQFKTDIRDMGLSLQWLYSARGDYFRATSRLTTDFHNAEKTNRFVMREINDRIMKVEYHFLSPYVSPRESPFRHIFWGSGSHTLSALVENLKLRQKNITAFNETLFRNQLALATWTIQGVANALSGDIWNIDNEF
test: FACS, transfected Expi293 cells
Reported % double-positive cells vs WT values follow for various binders
property.measured: % double-positive cells vs WT (%)

binder	numeric.result
Clone C variant 13 VNAR-hFc (Fc fusion, not shown: a dimerising Fc or GST, also called Clone C v13; Clone C var; 13) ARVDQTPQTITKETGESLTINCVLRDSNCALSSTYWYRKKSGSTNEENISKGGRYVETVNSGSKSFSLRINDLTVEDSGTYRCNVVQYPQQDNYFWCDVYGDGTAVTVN	111
Clone C variant 18 VNAR-hFc (Fc fusion, not shown: a dimerising Fc or GST, also called Clone C v18; Clone C var; 18) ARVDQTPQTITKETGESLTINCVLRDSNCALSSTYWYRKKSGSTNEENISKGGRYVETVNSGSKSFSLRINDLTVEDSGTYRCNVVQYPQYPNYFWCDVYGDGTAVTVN	241
Clone C VNAR-hFc fusion (Fc fusion, not shown: a dimerising Fc or GST, bivalent VNAR-Fc; also called Clone C-hFc) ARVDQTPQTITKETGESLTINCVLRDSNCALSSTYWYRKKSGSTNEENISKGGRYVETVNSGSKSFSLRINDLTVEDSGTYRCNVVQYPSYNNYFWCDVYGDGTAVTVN	357
8D3 antibody (anti-mouse TfR-1 control; 8D3-hFc formatted antibody) (antibody, V domains shown) VH: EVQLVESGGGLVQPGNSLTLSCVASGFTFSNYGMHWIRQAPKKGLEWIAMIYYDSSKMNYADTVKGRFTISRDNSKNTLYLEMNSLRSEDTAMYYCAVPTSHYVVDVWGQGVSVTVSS VL: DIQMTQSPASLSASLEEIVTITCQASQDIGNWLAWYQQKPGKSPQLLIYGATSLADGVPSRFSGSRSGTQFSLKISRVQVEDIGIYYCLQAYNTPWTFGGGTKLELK	82
